# Assay System: T1, mouse DLL4 extracellular domain (mouse, UniProt Q9JI71 27-532)
# T1 construct: extracellular domain; also called muDLL4 ECD; murine DLL4
# T1 sequence (Q9JI71 27-532): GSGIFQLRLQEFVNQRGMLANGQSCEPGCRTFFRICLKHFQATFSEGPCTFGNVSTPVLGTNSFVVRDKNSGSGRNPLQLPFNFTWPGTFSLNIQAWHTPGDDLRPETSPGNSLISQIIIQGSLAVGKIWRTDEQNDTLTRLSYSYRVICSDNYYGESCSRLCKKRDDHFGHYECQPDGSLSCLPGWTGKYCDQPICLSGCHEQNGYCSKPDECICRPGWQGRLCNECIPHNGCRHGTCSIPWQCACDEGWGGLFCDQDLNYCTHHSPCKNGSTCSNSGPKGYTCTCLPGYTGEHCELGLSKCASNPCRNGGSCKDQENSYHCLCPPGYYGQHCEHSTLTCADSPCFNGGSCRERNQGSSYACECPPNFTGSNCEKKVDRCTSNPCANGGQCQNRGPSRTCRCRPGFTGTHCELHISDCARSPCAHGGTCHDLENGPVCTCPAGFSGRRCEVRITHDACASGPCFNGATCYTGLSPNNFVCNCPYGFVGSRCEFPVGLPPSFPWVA
# Assay Comment: SPR (Biacore)
Can you tell me Kd for the items I'm about to list?
API: value field is a number in nM; no unit string.

Given the binder 32C7 rat anti-DLL4 monoclonal antibody (antibody, rat IgG2a, V domains shown, rat IgG2a/k hybridoma mAb; also called MC10-32C7.5A4) VH: EVQLVESGGGLVQPGRSLKLSCLASGFPFSSVWMTWIRQAPGKGLEWIATITNSGASTYYSASVKGRFTISRDNVKSTLYLQMTSLGSEDTATYYCTRVGTSFDYWGQGVMVTVSS VL: DIQMTQSPASLSASLGETVTIECRASDDIYNGLAWFQQKPGKSPQLLIYDANTLHTGVPSRFSGSGSGTQFSLKINSLQSEDVASYFCQQFYDYPPYTFGAGTKLELKR , what is its reported Kd? 88

Given the binder h1A11.16 (antibody, V domains shown, humanized IgG; also called VH.2a/VL.2a 1A11) VH: EVQLVESGGGLVQPGGSLRLSCAASGFTFSNFPMAWVRQAPGKGLEWVATISSSDGTTYYRDSVKGRFTISRDNSKSTLYLQMNSLRAEDTAVYYCSRGYYNSPFAYWGQGTLVTVSS VL: EIVMTQSPATLSVSPGERATLSCRASEDIYSNLAWYQQKPGQSPRLLIFDTNNLADGVPARFSGSGSGTESTLTISSLQSEDFAVYFCQQYNNYPPTFGQGTKLEIKR , what is its reported Kd? 39

Given the binder h1A11.13 (antibody, V domains shown, humanized IgG; also called VH.2a/VL.1 1A11) VH: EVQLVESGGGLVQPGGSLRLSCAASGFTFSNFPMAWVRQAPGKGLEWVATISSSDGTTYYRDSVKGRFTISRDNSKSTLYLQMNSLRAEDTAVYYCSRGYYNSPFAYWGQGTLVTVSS VL: DIQMTQSPSSLSASVGDRVTITCRASEDIYSNLAWYQQKPGKAPKLLIYDTNNLADGVPSRFSGSGSGTDFTLTISSLQPEDFATYYCQQYNNYPPTFGQGTKLEIKR , what is its reported Kd? 37

Given the binder h1A11.7 (antibody, V domains shown, humanized IgG; also called VH.1a/VL.1b 1A11) VH: EVQLVESGGGLVQPGGSLRLSCAASGFTFSNFPMAWVRQAPGKGLEWVATISSSDGTTYYRDSVKGRFTISRDNAKSSLYLQMNSLRAEDTAVYYCSRGYYNSPFAYWGQGTLVTVSS VL: DIQMTQSPSSLSASVGDRVTITCRASEDIYSNLAWYQQKPGKAPKLLIFDTNNLADGVPSRFSGSGSGTDFTLTISSLQPEDFATYYCQQYNNYPPTFGQGTKLEIKR , what is its reported Kd? 35
